B1: ZNF449 (parent)
chain: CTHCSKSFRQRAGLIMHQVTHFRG

variants of: B1; assay: protein stability index of a GFP-peptide fusion (GPS, HEK-293T) (PSI 1-6); higher = more stable; conditions: c terminus: a fixed tail appended;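 also: lentivirally expressed fusions sorted by FACS into six bins by GFP to DsRed ratio, PSI derived from sequencing read proportions per bin multiplied by bin number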
readoutName: protein stability index
Field format: numeric only.

Take a look at these entries with their results.
H21L | 1.97
C1D | 2.01
F8P | 1.81
F22I | 1.92
Q10V | 2.19
C4L | 2.13

Task: Quick one: protein stability index for T2E ?
Output: 2.4

Task: Same question for V19R please.
Output: 3.95

Task: Now the variant S5R
Output: 1.7

Task: Entry to check: R23M
Output: 2.44

Task: Same lookup for Q10E , please.
Output: 2.61

Task: Queued: Q18D
Output: 2.79

Task: Please give the result for R11Y too.
Output: 2.29

Task: Try G24E next.
Output: 2.88

Task: Queued: C4V
Output: 1.58

Task: Next record, please: H17M
Output: 2.44

Task: Would you kindly repeat that for R11S ?
Output: 1.48

Task: Moving on to the next variant: S7M
Output: 1.57

Task: Try R11H next.
Output: 1.87

Task: Follow-up item: H17C
Output: 2.29

src = the supplement of paper PMC10567573
